- Test system: self-synthesis of adrenocortical hormone
- assay_explanation: Increase degree of cortical hormone (cortisol, corticosterone) in blood serum after ACTH stimulation, ELISA
- Assay type: in vivo
- experimental_context: Example 11; Beagle dogs, 2ED50; ratio of peak value to baseline, dexamethasone baseline, 1 h after ACTH
Where a name gives a salt, the structure may show the parent alone.
// Increase degree of corticosterone lookup, one value per entry
attribute_measured: Increase degree of corticosterone

compound	reported_value
CCOC(=O)c1cncn1[C@H](C)c1ccccc1 [Etomidate, reference compound]	2.80
COCCOC(=O)c1cncn1[C@H](C)c1ccccc1 [Hydrochloride of Formula (I) compound]	18.14
COCCOC(=O)c1cncn1[C@H](C)c1ccccc1 [Hydrobromide of Formula (I) compound]	12.36
COCCOC(=O)c1cncn1[C@H](C)c1ccccc1 [Trifluoroacetate of Formula (I) compound]	13.64

====

- Tested on: Male SD rats
- assay_explanation: Onset time, last time, palinesthesia time and adverse effects at 2ED50 via the rat tail vein
- Assay type: in vivo
- experimental_context: Example 8, 2ED50 via tail vein, disappearance to recovery of body-righting reflex

compound	target_or_test_system	Last time
CCOC(=O)c1cncn1[C@H](C)c1ccccc1 [Etomidate, reference compound]	Male SD rats	6.1 ± 1.3 min
COCCOC(=O)c1cncn1[C@@H](C)c1ccccc1	Male SD rats	20.3 ± 4.6 min
COCCOC(=O)c1cncn1[C@H](C)c1ccccc1	Male SD rats	5.8 ± 0.9 min
COCCOC(=O)c1cncn1C(C)c1ccccc1 (racemic)	Male SD rats	10.8 ± 3.5 min

====

- System: Male SD rats
- assay_explanation: Onset time, last time, palinesthesia time and adverse effects at 2ED50 via the rat tail vein
- Type: in vivo
- experimental_context: Example 9, 2ED50 via tail vein, 10 rats per group
Counter-ions that a name gives are not always drawn.
attribute_measured: Incidence of adverse effect: Muscle tremor

molecule	reported_value
COCCOC(=O)c1cncn1[C@H](C)c1ccccc1 [Hydrochloride of Formula (I) compound]	60%
COCCOC(=O)c1cncn1[C@H](C)c1ccccc1 [Hydrobromide of Formula (I) compound]	50%
CCOC(=O)c1cncn1[C@H](C)c1ccccc1 [Etomidate, reference compound]	60%
